Target: Sko1 (UniProt Q02100)
Sequence: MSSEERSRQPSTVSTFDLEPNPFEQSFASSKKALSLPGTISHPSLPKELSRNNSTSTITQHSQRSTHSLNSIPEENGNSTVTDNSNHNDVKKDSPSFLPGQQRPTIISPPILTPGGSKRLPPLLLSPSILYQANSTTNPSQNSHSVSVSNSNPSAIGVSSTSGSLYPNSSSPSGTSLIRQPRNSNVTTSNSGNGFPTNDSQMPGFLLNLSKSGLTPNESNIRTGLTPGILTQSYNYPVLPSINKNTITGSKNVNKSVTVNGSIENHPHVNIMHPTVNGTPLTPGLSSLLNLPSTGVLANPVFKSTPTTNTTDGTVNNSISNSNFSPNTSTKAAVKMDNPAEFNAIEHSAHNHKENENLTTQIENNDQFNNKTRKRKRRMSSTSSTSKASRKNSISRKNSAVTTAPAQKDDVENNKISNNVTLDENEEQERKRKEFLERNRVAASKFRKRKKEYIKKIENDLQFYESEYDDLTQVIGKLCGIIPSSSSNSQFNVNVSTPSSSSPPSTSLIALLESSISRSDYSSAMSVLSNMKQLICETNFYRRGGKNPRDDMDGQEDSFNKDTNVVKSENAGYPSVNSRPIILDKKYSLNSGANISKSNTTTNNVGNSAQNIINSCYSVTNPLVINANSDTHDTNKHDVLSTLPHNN
Assay: PBM E-score (8-mer binding enrichment) (E-score (-0.5 to 0.5)); higher = stronger / more preferred TF binding
Conditions: protein concentration: 200 nM; construct: GST-full length
Over roughly 33,000 sequences, “E-score (-0.5 to 0.5)” has its median near -0.032; the highest 2% begin near 0.36. For the sample, the highest values were picked, then their nearest neighbours and some sequences at random.
ATTRIBUTE MEASURED: PBM E-score

Reported Sko1 (UniProt Q02100) PBM E-score for item ATGCCGTG was -0.111

Value sought: PBM E-score, system Sko1 (UniProt Q02100), item ATGGTTGA . Result: -0.0732

Record CGACCGCA / Sko1 (UniProt Q02100), PBM E-score recorded as -0.266

GET /values?item= AACGTAAC &system= Sko1 (UniProt Q02100) returns PBM E-score: 0.441

Record CGTCGTAG / Sko1 (UniProt Q02100), PBM E-score recorded as 0.0813

GET /values?item= ATTGACGG &system= Sko1 (UniProt Q02100) returns PBM E-score: 0.0348

Let me check: CCTACGGA , system Sko1 (UniProt Q02100), measured PBM E-score is -0.182

Entry AAGATCGT , Sko1 (UniProt Q02100) data, PBM E-score value: 0.0795

The reported PBM E-score value, Sko1 (UniProt Q02100), for ATTGCGAG reads -0.0027

// assay Sko1 (UniProt Q02100), entry AATGACGG , PBM E-score value = 0.388

Log: Sko1 (UniProt Q02100), sequence ACAATACA , PBM E-score = 0.0868

The observed PBM E-score for CAATAGCA when tested with Sko1 (UniProt Q02100) stands at -0.132

Simply: CGACGTTC , Sko1 (UniProt Q02100), PBM E-score = -0.0745

Value (PBM E-score, Sko1 (UniProt Q02100)) for record GAAGCACC = -0.0674

Reading of PBM E-score for GTCGTAAA with Sko1 (UniProt Q02100): 0.282

Reported Sko1 (UniProt Q02100) PBM E-score for item CCTACGTA was 0.477

Test item CGACGTGC ; Sko1 (UniProt Q02100); reported PBM E-score was 0.22

# ACTTCGGC with Sko1 (UniProt Q02100): PBM E-score is -0.00736

Record CGACGTAG has Sko1 (UniProt Q02100) PBM E-score equal to 0.368

Summary line: CCTACGAA , Sko1 (UniProt Q02100), reported PBM E-score = 0.0841

// sequence CATACGTA , assay Sko1 (UniProt Q02100), PBM E-score value: 0.485

Field PBM E-score (system: Sko1 (UniProt Q02100)) for entry GTCGTAAC = 0.267

Record for GTAGTTGA under target or system Sko1 (UniProt Q02100): PBM E-score reported as 0.173

PBM E-score for Sko1 (UniProt Q02100) with input AATACGAC equals 0.22

Lab entry: Sko1 (UniProt Q02100) assay, sequence ATGCAGGC , PBM E-score = -0.024

PBM E-score for Sko1 (UniProt Q02100) with input ACTGCGTG equals 0.131

The value of PBM E-score recorded for CTGTTCGA when tested on Sko1 (UniProt Q02100) reads -0.13

Tested on Sko1 (UniProt Q02100): AATACGGC . Observed PBM E-score: 0.0384

# value of PBM E-score, Sko1 (UniProt Q02100), item AAATGGTG = 0.0316

Form field PBM E-score for item AGATACCC on Sko1 (UniProt Q02100): -0.0725

Log: Sko1 (UniProt Q02100), sequence CGTAGAGC , PBM E-score = 0.116

The reported Sko1 (UniProt Q02100) PBM E-score of AATGACAT is 0.4

Sko1 (UniProt Q02100) PBM E-score of ATAATACA is 0.208

The recorded PBM E-score with Sko1 (UniProt Q02100) for AGCGCGAA was 0.13

Sko1 (UniProt Q02100) assay, sequence GCTAGCCC , recorded PBM E-score = -0.26

Reported Sko1 (UniProt Q02100) PBM E-score for item CCTGTTCG was -0.0292

Value (PBM E-score, Sko1 (UniProt Q02100)) for record AGACGAAA = 0.199

Form: item AGACGGAA ; test system Sko1 (UniProt Q02100); PBM E-score: -0.136

// returns PBM E-score for AGACAGTA with Sko1 (UniProt Q02100); value = 0.0897

Case AATGACAG , Sko1 (UniProt Q02100), PBM E-score recorded as 0.0139

The observed PBM E-score for TCATTTCA when tested with Sko1 (UniProt Q02100) stands at 0.181

The recorded PBM E-score with Sko1 (UniProt Q02100) for CCTACGGC was -0.34

Case AGGAGGTC , Sko1 (UniProt Q02100), PBM E-score recorded as -0.24

The sequence ACCGTGCG , when measured on Sko1 (UniProt Q02100), yielded PBM E-score of 0.0174

PBM E-score value, target or system Sko1 (UniProt Q02100), for ATTACAAA : 0.234

The value of PBM E-score recorded for ATACGACG when tested on Sko1 (UniProt Q02100) reads 0.234

Reported Sko1 (UniProt Q02100) PBM E-score for item ATACGACA was 0.363

Form field PBM E-score for item ACTACGTC on Sko1 (UniProt Q02100): 0.433

GET /values?item= CGACGTAC &system= Sko1 (UniProt Q02100) returns PBM E-score: 0.412

Value (PBM E-score, Sko1 (UniProt Q02100)) for record TGACGAAA = 0.463

Bench note, Sko1 (UniProt Q02100): entry TAGTATAA , its PBM E-score = 0.24

Summary: GGACGTTA , Sko1 (UniProt Q02100), PBM E-score = 0.251

Summary line: ACTACGCC , Sko1 (UniProt Q02100), reported PBM E-score = -0.00632

Field PBM E-score (Sko1 (UniProt Q02100)), entry ACTAGGGC : -0.211

The observed PBM E-score for AGACGTTA when tested with Sko1 (UniProt Q02100) stands at 0.283

Sko1 (UniProt Q02100) assay, sequence AAAGTAAA , recorded PBM E-score = 0.0553

The value of PBM E-score recorded for CTTGCGTC when tested on Sko1 (UniProt Q02100) reads 0.27

The reported PBM E-score value, Sko1 (UniProt Q02100), for CACTGCAG reads -0.064

Entry CTTACGAA : PBM E-score on Sko1 (UniProt Q02100) = 0.275

Sko1 (UniProt Q02100) data for AATGGGAC ; its PBM E-score: -0.215

Sko1 (UniProt Q02100) data for TGACGACA ; its PBM E-score: 0.467

Entry AATGACAC ; assay system Sko1 (UniProt Q02100); PBM E-score recorded at 0.258

Query ATTGCGTG on Sko1 (UniProt Q02100); PBM E-score returned: 0.419

Test item CATACGGA ; Sko1 (UniProt Q02100); reported PBM E-score was -0.00572
